Documented growth inhibition across a set of molecules
- TEST_PROTOCOL: NCI Yeast Anticancer Drug Screen. Data for the rad50EPP+ strain (AID 151);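 note: 0% = growth of vehicle-treated control cultures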
- CONDITIONS_USED: S. cerevisiae rad50 mutant strain, at 1.2 µM, hits give high values
The panel holds about 79,000 compounds, 15% with a hit somewhere; the sample as a whole holds those more often. The source made the active and inactive calls. Cut-off read from the data, not from the text of the source: active = growth inhibition above about 70%; inactive = the rest.

* Clc1cccc(C(Nc2nncs2)Nc2nncs2)c1Cl | -1% (inactive)
* CCCCCCCC1(N=[N+]=[N-])C(=O)c2ccccc2N(C)C1=O (stereo not drawn) | 5% (inactive)
* CCCC/C=C/C(CC)(C(=O)OCC)C(=O)OCC | -2% (inactive)

Record COc1ccc2ccc3ccccc3c2c1C=O , field growth inhibition: 0% (inactive)

Record CC(C)NC(=O)OCc1c(COC(=O)NC(C)C)c(-c2ccc(Cl)c(Cl)c2)n2c1CCC2 . Reported growth inhibition: -23% (inactive)

Sample CCCCCCCCNC(=O)C1=C(C)NC(C)=C(C(=O)NCCCCCCCC)C1 ; growth inhibition observed: 0% (inactive)

Reported growth inhibition ( O=C(CCCN1CCC2(CC1)CC(=O)N(N1CCCCCC1)C2=O)c1ccc(F)cc1 ) = -2% (inactive)

GET /value?item= CN(C)c1ccc(Sc2ccc3nc(N)nc(N)c3c2)cc1 &field=growth inhibition returns 15% (inactive)

Value of growth inhibition reported for the molecule C#CCCCc1ccccc1 is -65% (inactive)

# molecule CC(O)C(O)C(O)C(/C=N\Nc1ccccc1)=N/Nc1ccccc1 (stereo not drawn) ; its growth inhibition = 14% (inactive)

Given item CC(=O)Oc1ccc2c(c1)Cc1cc(N=C3C=CC(=O)O3)ccc1-2 , the value recorded as its growth inhibition is 78% (active)

Record summary for C=C1CC(Cn2cc(Br)c(=O)[nH]c2=O)(c2ccc(-c3ccccc3)cc2)OC1=O (stereo not drawn) : reported growth inhibition = -4% (inactive)

Lab book: growth inhibition of CCCN(CCC)CC(O)c1cc(-c2ccc(Cl)cc2)nc2c(C)c(Cl)ccc12 (stereo not drawn) noted as -2% (inactive)

Entry O=C1CSC(/C=C/c2ccccc2)N1c1ccc(-c2ccc(-n3c(-c4ccccc4)nc4ccccc4c3=O)cc2)cc1 (stereo not drawn) ; growth inhibition = 2% (inactive)

Please fill in: growth inhibition reported for COc1ccc(NC(=S)N/N=C(\c2ccccc2)c2ccccn2)cc1 = 0% (inactive)

Quick note, growth inhibition for CC[C@@]1(O)C(=O)OCc2c1cc1n(c2=O)Cc2cc3c(N)cccc3nc2-1 landed at 13% (inactive)

---

Measured growth inhibition accompanies every entry in the list below.
- TEST_PROTOCOL: NCI Yeast Anticancer Drug Screen. Data for the rad50 strain (AID 155);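 note: 0% = growth of vehicle-only cultures of the same strain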
- CONDITIONS_USED: S. cerevisiae rad50 strain growth inhibition; at 50.0 µM; hits give high values
The panel holds about 79,000 compounds, 15% with a hit somewhere; the sample as a whole holds those more often. The source made the active and inactive calls. No stated cut-off is given here; in the data, active means growth inhibition above about 70%; inactive means the rest.

* O=[N+]([O-])c1cc2no[n+]([O-])c2cc1N1CCCCC1 | 90% (active)

Lookup result for COC1=CC(=O)C2C(C1=O)C(c1ccc(Cl)cc1)[C@@H]2C (stereo partly drawn) ; measured growth inhibition: 90.5% (active)

Quick note, growth inhibition for c1ccc2c(c1)sc1nc3ccncc3nc12 landed at 90% (active)

---

- TEST_PROTOCOL: NCI Yeast Anticancer Drug Screen. Data for the rad14 strain (AID 159);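 note: 0% = growth of vehicle-treated control cultures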
- CONDITIONS_USED: S. cerevisiae rad14 strain growth inhibition; at 11.0 µM
Compounds without any hit were thinned out: in the full panel of roughly 79,000, 15% have a hit. Activity calls are given as the source filed them. No stated cut-off is given here; in the data, active means growth inhibition above about 70%; inactive means the rest.
Please state which outcome applies, choosing from active, inactive

A selection of reference data follows.
- CN(C)CCn1c2c3ccccc3ccc2c2oc(=O)c3ccccc3c21: inactive
- OC1(c2ccccc2)CSC2=Nc3ccccc3C3CCN1N23 (stereo not drawn): inactive
- COc1ccc(/C=C/C(=O)C(C)(C)Br)cc1: active

So what was the verdict on CN(C)c1ccc(Sc2ccc3nc(N)nc(N)c3c2)cc1 in this test?
inactive

What is the recorded call for this molecule in the test? C/C(=N\O)C1CC2C=C(C#N)C1N(Cc1ccccc1)C2 (stereo not drawn)
inactive

Could you check what this test reported for COc1ccc(OC)c2cc3ccccc3cc12 ?
inactive

Hi, sorry to bother you, what did the test record for Oc1c(Br)cc(Br)cc1C1CCCCC1 ?
inactive

Called result for COc1ccc2sc3cccc(NCCN(C)C)c3c(=O)c2c1
inactive
